Experiment description: activity coefficient (dimensionless); of the first substance listed, at infinite dilution; xn = mol fraction of the nth substance listed
Reported conditions: 323.15 K; 101 kPa; Liquid; Chromatography; x1 = 0
Endpoint name: activity coefficient

1. CC(C)O [propan-2-ol] + CCn1cc[n+](C)c1.N#C[B-](C#N)(C#N)C#N; 1.56
2. CC#N [acetonitrile] + CCn1cc[n+](C)c1.N#C[B-](C#N)(C#N)C#N; 0.43
3. CCC(C)=O [butanone] + CCn1cc[n+](C)c1.N#C[B-](C#N)(C#N)C#N; 0.584
4. C[N+](=O)[O-] [nitromethane] + CCn1cc[n+](C)c1.N#C[B-](C#N)(C#N)C#N; 0.421
5. CC(C)=O [acetone] + CCn1cc[n+](C)c1.N#C[B-](C#N)(C#N)C#N; 0.443

----------
Experiment description: activity coefficient (dimensionless); of the first substance listed, at infinite dilution; xn = mol fraction of the nth substance listed
Reported conditions: 333.15 K; 101 kPa; Liquid; Chromatography; x1 = 0
Criterion: activity coefficient strictly under 3. Met: t. Not met: f.

1. CCC1CCCCC1 [ethylcyclohexane] + CCn1cc[n+](C)c1.N#C[B-](C#N)(C#N)C#N; f
2. CCc1ccccc1 [ethylbenzene] + CCn1cc[n+](C)c1.N#C[B-](C#N)(C#N)C#N; t
3. CO [methanol] + CCn1cc[n+](C)c1.N#C[B-](C#N)(C#N)C#N; t
4. c1ccccc1 [benzene] + CCn1cc[n+](C)c1.N#C[B-](C#N)(C#N)C#N; t
5. CCCCCCC [heptane] + CCn1cc[n+](C)c1.N#C[B-](C#N)(C#N)C#N; f
6. COCCOC [1,2-dimethoxyethane] + CCn1cc[n+](C)c1.N#C[B-](C#N)(C#N)C#N; t
7. ClC(Cl)Cl [trichloromethane] + CCn1cc[n+](C)c1.N#C[B-](C#N)(C#N)C#N; t
8. CCCCCCCC [octane] + CCn1cc[n+](C)c1.N#C[B-](C#N)(C#N)C#N; f
9. FC(F)(F)C(Cl)Br (configuration not stated) [1-bromo-1-chloro-2,2,2-trifluoroethane] + CCn1cc[n+](C)c1.N#C[B-](C#N)(C#N)C#N; t
10. COC(C)=O [methyl ethanoate] + CCn1cc[n+](C)c1.N#C[B-](C#N)(C#N)C#N; t
11. ClC(Cl)(Cl)Cl [tetrachloromethane] + CCn1cc[n+](C)c1.N#C[B-](C#N)(C#N)C#N; f
12. CC(C)OC(C)C [diisopropyl ether] + CCn1cc[n+](C)c1.N#C[B-](C#N)(C#N)C#N; f
13. CCC(C)=O [butanone] + CCn1cc[n+](C)c1.N#C[B-](C#N)(C#N)C#N; t
14. CC#N [acetonitrile] + CCn1cc[n+](C)c1.N#C[B-](C#N)(C#N)C#N; t
15. C1CCOC1 [tetrahydrofuran] + CCn1cc[n+](C)c1.N#C[B-](C#N)(C#N)C#N; t
16. Cc1cccc(C)c1 [1,3-dimethylbenzene] + CCn1cc[n+](C)c1.N#C[B-](C#N)(C#N)C#N; t
17. COC(=O)OC [dimethyl carbonate] + CCn1cc[n+](C)c1.N#C[B-](C#N)(C#N)C#N; t

----------
This section presents molecules with their documented activity coefficient values.
Experiment description: activity coefficient (dimensionless); of the first substance listed, at infinite dilution; xn = mol fraction of the nth substance listed
Reported conditions: 343.15 K; 101 kPa; Liquid; Chromatography; x1 = 0
Endpoint name: activity coefficient

1) CC(C)=O [acetone] + CCn1cc[n+](C)c1.N#C[B-](C#N)(C#N)C#N; 0.466
2) CCCO [propan-1-ol] + CCn1cc[n+](C)c1.N#C[B-](C#N)(C#N)C#N; 1.31
3) c1ccccc1 [benzene] + CCn1cc[n+](C)c1.N#C[B-](C#N)(C#N)C#N; 1.18
4) COC(=O)OC [dimethyl carbonate] + CCn1cc[n+](C)c1.N#C[B-](C#N)(C#N)C#N; 0.563
5) ClCCl [dichloromethane] + CCn1cc[n+](C)c1.N#C[B-](C#N)(C#N)C#N; 0.698
6) CCOC(C)=O [ethyl acetate] + CCn1cc[n+](C)c1.N#C[B-](C#N)(C#N)C#N; 1.04
7) CCC1CCCCC1 [ethylcyclohexane] + CCn1cc[n+](C)c1.N#C[B-](C#N)(C#N)C#N; 343
8) ClC(Cl)Cl [trichloromethane] + CCn1cc[n+](C)c1.N#C[B-](C#N)(C#N)C#N; 0.895
9) CO [methanol] + CCn1cc[n+](C)c1.N#C[B-](C#N)(C#N)C#N; 0.795
10) CCCCCCC [heptane] + CCn1cc[n+](C)c1.N#C[B-](C#N)(C#N)C#N; 34.8
11) CCO [ethanol] + CCn1cc[n+](C)c1.N#C[B-](C#N)(C#N)C#N; 1.07
12) C1CCCCC1 [cyclohexane] + CCn1cc[n+](C)c1.N#C[B-](C#N)(C#N)C#N; 11.8
13) CCCCCCCC [octane] + CCn1cc[n+](C)c1.N#C[B-](C#N)(C#N)C#N; 51
14) FC(F)(F)C(Cl)Br (stereo not given) [1-bromo-1-chloro-2,2,2-trifluoroethane] + CCn1cc[n+](C)c1.N#C[B-](C#N)(C#N)C#N; 1.34
15) CCc1ccccc1 [ethylbenzene] + CCn1cc[n+](C)c1.N#C[B-](C#N)(C#N)C#N; 2.61
16) C[N+](=O)[O-] [nitromethane] + CCn1cc[n+](C)c1.N#C[B-](C#N)(C#N)C#N; 0.426
17) COC(C)(C)C [2-methoxy-2-methylpropane] + CCn1cc[n+](C)c1.N#C[B-](C#N)(C#N)C#N; 2.9
18) Cc1cccc(C)c1 [1,3-dimethylbenzene] + CCn1cc[n+](C)c1.N#C[B-](C#N)(C#N)C#N; 2.63
19) COC(C)=O [methyl ethanoate] + CCn1cc[n+](C)c1.N#C[B-](C#N)(C#N)C#N; 0.7
20) COCCOC [1,2-dimethoxyethane] + CCn1cc[n+](C)c1.N#C[B-](C#N)(C#N)C#N; 0.539
21) C1CCOC1 [tetrahydrofuran] + CCn1cc[n+](C)c1.N#C[B-](C#N)(C#N)C#N; 0.744
22) Cc1ccccc1 [toluene] + CCn1cc[n+](C)c1.N#C[B-](C#N)(C#N)C#N; 1.72
23) c1ccsc1 [thiophene] + CCn1cc[n+](C)c1.N#C[B-](C#N)(C#N)C#N; 0.967
24) CC(C)O [propan-2-ol] + CCn1cc[n+](C)c1.N#C[B-](C#N)(C#N)C#N; 1.32
25) CC1CCCCC1 [methylcyclohexane] + CCn1cc[n+](C)c1.N#C[B-](C#N)(C#N)C#N; 17.2
26) C=CCCCCCC [oct-1-ene] + CCn1cc[n+](C)c1.N#C[B-](C#N)(C#N)C#N; 24.6
27) CC#N [acetonitrile] + CCn1cc[n+](C)c1.N#C[B-](C#N)(C#N)C#N; 0.431
28) CC(C)OC(C)C [diisopropyl ether] + CCn1cc[n+](C)c1.N#C[B-](C#N)(C#N)C#N; 7.11
29) ClC(Cl)(Cl)Cl [tetrachloromethane] + CCn1cc[n+](C)c1.N#C[B-](C#N)(C#N)C#N; 3.54
30) CCC(C)=O [butanone] + CCn1cc[n+](C)c1.N#C[B-](C#N)(C#N)C#N; 0.611

----------
Experiment description: activity coefficient (dimensionless); of the first substance listed, at infinite dilution; xn = mol fraction of the nth substance listed
Reported conditions: 353.15 K; 101 kPa; Liquid; Chromatography; x1 = 0
Rule: class 1 for activity coefficient not less than 0.8, class 0 for anything less.

1) CC1CCCCC1 [methylcyclohexane] + CCn1cc[n+](C)c1.N#C[B-](C#N)(C#N)C#N; class 1
2) CCOC(C)=O [ethyl acetate] + CCn1cc[n+](C)c1.N#C[B-](C#N)(C#N)C#N; class 1
3) CCc1ccccc1 [ethylbenzene] + CCn1cc[n+](C)c1.N#C[B-](C#N)(C#N)C#N; class 1
4) C1CCOC1 [tetrahydrofuran] + CCn1cc[n+](C)c1.N#C[B-](C#N)(C#N)C#N; class 0
5) Cc1cccc(C)c1 [1,3-dimethylbenzene] + CCn1cc[n+](C)c1.N#C[B-](C#N)(C#N)C#N; class 1
6) ClC(Cl)(Cl)Cl [tetrachloromethane] + CCn1cc[n+](C)c1.N#C[B-](C#N)(C#N)C#N; class 1
7) CCC(C)=O [butanone] + CCn1cc[n+](C)c1.N#C[B-](C#N)(C#N)C#N; class 0
8) C[N+](=O)[O-] [nitromethane] + CCn1cc[n+](C)c1.N#C[B-](C#N)(C#N)C#N; class 0

Source: the NIST ThermoML archive (doi:10.1016/j.jct.2011.09.028)
